Source of measurements: ChEMBL document CHEMBL4513216

Field: INHIBITION. Provide a value for each of the compounds that follow.
Test system: Plasmodium berghei
Experiment: Screen against P. berghei liver stage (PbLuc), transformed with Luciferase, at 2uM
Format: functional, HepG2
Details: tested at 2 uM
The whole screen tested about 68,000 compounds, of which about 2,700 (4%) showed an effect of 50% or more. Shown is part of a subset that was picked to be rich in strong results.
Give the quantity in %, number only.

Any idea what its INHIBITION is? The compound is COc1ncccc1CNC(=O)NCCNS(C)(=O)=O
6.3

What measured INHIBITION goes with COc1ncccc1CNC(=O)c1csc(Br)c1 ?
-12.08

GET /values?readout=INHIBITION&item= Nc1no[n+]([O-])c1C(=O)NCc1cccnc1
-3.26

Query (compound): Nc1no[n+]([O-])c1C(=O)NCc1ccco1 ; field requested: INHIBITION
84.12

I am curious: what INHIBITION value has been reported for Nc1no[n+]([O-])c1C(=O)NCc1ccccn1 ?
-18.45

Fill blank: measured INHIBITION of the compound O=C(C1CCCCC1)N1CCC2(CCCN2CC2CC2)CC1 is ____.
24.15

Report INHIBITION for COc1ncccc1CNC(=O)c1c[nH]c(=O)c(Br)c1 please.
37.18

Entry under review: COc1ncccc1CNC(=O)c1cc(F)cc(Br)c1 . Reported INHIBITION?
58.69

Name the reported INHIBITION value associated with the compound COc1ncccc1CNC(=O)NCc1ccco1
-2.87

If you can, please state the reported INHIBITION value of NC(=O)CC1CCN(C(=O)c2csc(-c3ccccc3F)n2)CC1 .
51.96

Can you share its INHIBITION? I mean this compound: COC1CCN(C(=O)c2csc(-c3ccccc3F)n2)CC1
10.91

Need INHIBITION of CCCNC(=O)NCc1cccnc1OC , thanks.
56.12

State the recorded INHIBITION for this entry: COc1ccc(OCc2noc(CN(C)C3CCS(=O)(=O)C3)n2)cc1 (stereo not drawn)
57.91

---

Test system: Plasmodium berghei
Assay: Screen against P. berghei liver stage (PbLuc), transformed with Luciferase, at 2uM
Format: functional, HepG2
Settings: tested at 2 uM
The campaign covered roughly 68,000 compounds. About 2,700 (4%) showed an effect of 50% or more. Only a selection was taken, and strong results are over-represented in it overall.
measured-quantity: INHIBITION (%)
Dear colleague, please return just the value in %, with no unit written.

Short answer please: INHIBITION, Plasmodium berghei, entry CCOC(C)c1noc(CN(C)C(=O)c2cc3ccccn3c2)n1 (stereo unspecified)
52.08

Missing value: INHIBITION, Plasmodium berghei, entry CCc1ccc(CCNc2ncnc3c2CCN(C(=O)C2CC2)C3)cc1 . Fill in?
55.66

Checklist item: INHIBITION tested on Plasmodium berghei, entry CCCn1ccc2cc(NC(=O)NCCn3cnnc3CC)ccc21 , value?
12.58

Checklist item: INHIBITION tested on Plasmodium berghei, entry Nc1nnc(CCNc2ncnc3c2CCN(C(=O)C2CC2)C3)s1 , value?
11.9

Identify the measured INHIBITION of CCOC(C)c1noc(CN(C)C(=O)C2C(C)(C)C2(C)C)n1 (stereo unspecified) for Plasmodium berghei.
20.14

Provide value of INHIBITION for this record tested with Plasmodium berghei: CCOC(C)c1noc(CN(C)C(=O)c2ccncc2)n1 (stereo unspecified)
20.14
